target: recombinant human plasminogen activator inhibitor-1 (PAI-1) (Homo sapiens, UniProt P05121); construct: purchased Molecular Innovations, Royal Oak, Mich; test: Primary Screen for the PAI-1 Inhibition (residual tPA activity, chromogenic substrate Spectrozyme-tPA); type: biochemical; details: 100 μM test compound; 140 nM PAI-1, 70 nM tPA, pH 6.6
Sequence (P05121 24-402): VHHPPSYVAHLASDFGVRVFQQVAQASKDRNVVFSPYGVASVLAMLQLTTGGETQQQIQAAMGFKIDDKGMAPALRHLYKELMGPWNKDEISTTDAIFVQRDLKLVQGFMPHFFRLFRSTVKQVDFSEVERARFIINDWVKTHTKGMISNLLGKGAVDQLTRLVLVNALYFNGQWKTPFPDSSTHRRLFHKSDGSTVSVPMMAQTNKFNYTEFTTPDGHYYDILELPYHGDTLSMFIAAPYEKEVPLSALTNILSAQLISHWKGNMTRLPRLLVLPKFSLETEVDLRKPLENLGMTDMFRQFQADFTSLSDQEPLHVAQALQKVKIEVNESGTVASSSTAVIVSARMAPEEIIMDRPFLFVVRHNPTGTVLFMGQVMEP
QUANTITY NAME: inhibition at 100 µM (%)

[[record]]
compound = "O=C(O)C(Cc1ccccc1)Oc1ccc(-c2ccc(NC(=O)C3(c4ccc(Cl)cc4)CCC3)cc2)cc1 (stereo not drawn)"
reported_measurement = 83

[[record]]
compound = "O=C(O)COc1ccc(-c2ccc(NC(=O)C3(c4ccc(Cl)cc4)CCCC3)cc2)cc1"
reported_measurement = 89

[[record]]
compound = "O=C(O)C(Cc1ccccc1)Oc1ccc(-c2ccc(NC(=O)C3(c4ccc(Cl)cc4)CC3)cc2)cc1 (stereo not drawn)"
reported_measurement = 79

[[record]]
compound = "CCCCc1oc2ccccc2c1C(=O)Nc1ccc(-c2ccc(OCc3nnn[nH]3)cc2)cc1"
reported_measurement = 62

[[record]]
compound = "O=C(Nc1ccc(-c2cccc(OC(Cc3ccccc3)C(=O)O)c2)cc1)c1cccc2c1-c1ccccc1C2 (stereo not drawn)"
reported_measurement = 51

[[record]]
compound = "O=C(O)COc1ccc(-c2ccc(NC(=O)c3cc(-c4ccc(-c5ccccc5)cc4)oc3C(F)(F)F)cc2)cc1"
reported_measurement = 75

[[record]]
compound = "O=C(O)C(Cc1ccccc1)Oc1ccc(-c2ccc(NC(=O)C3(c4cccc(F)c4)CCCC3)cc2)cc1 (stereo not drawn)"
reported_measurement = 70

[[record]]
compound = "CCCCc1oc2ccccc2c1C(=O)NCc1ccc(-c2ccc(OCC(=O)O)c(Br)c2)cc1"
reported_measurement = 82

[[record]]
compound = "O=C(Nc1ccc(-c2ccc(OC(Cc3ccccc3)C(=O)O)cc2)cc1)c1cc(-c2ccc(C(F)(F)F)cc2)oc1C(F)(F)F (stereo not drawn)"
reported_measurement = 95

[[record]]
compound = "CCCCc1oc2ccccc2c1C(=O)Nc1ccc(-c2cccc(OC(Cc3ccccc3)C(=O)O)c2)cc1 (stereo not drawn)"
reported_measurement = 95


I: O=C(O)C(Cc1ccccc1)Oc1cccc(-c2ccc(NC(=O)C3(c4ccc(Cl)cc4)CCC3)cc2)c1 (stereo not drawn)
II: O=C(O)C(Cc1ccccc1)Oc1cccc(-c2ccc(NC(=O)C3(c4ccccc4)CC3)cc2)c1 (stereo not drawn)
Kindly identify which of I and II has the larger recorded inhibition at 100 µM value. // respond with label for picked entry I
(I: 81%, II: 52%)

----------
molecular target: recombinant human plasminogen activator inhibitor-1 (PAI-1) (Homo sapiens, UniProt P05121); construct: purchased Molecular Innovations, Royal Oak, Mich; experiment: Primary Screen for the PAI-1 Inhibition (residual tPA activity, chromogenic substrate Spectrozyme-tPA); format: biochemical; conditions: 25 μM test compound; 140 nM PAI-1, 70 nM tPA, pH 6.6
QUANTITY NAME: inhibition at 25 µM (%)

Below: 3 compounds and their reported inhibition at 25 µM.
[[record]]
compound = "CCCCc1oc2ccccc2c1C(=O)N(C)Cc1ccc(-c2ccc(OCc3nnn[nH]3)c(Br)c2)cc1"
reported_measurement = 42

[[record]]
compound = "O=C(Nc1ccc(-c2cccc(OC(Cc3ccccc3)C(=O)O)c2)cc1)c1cccc2c1-c1ccccc1C2 (stereo not shown)"
reported_measurement = 36

[[record]]
compound = "CCCCc1oc2ccccc2c1C(=O)N(Cc1ccccc1)Cc1ccc(-c2ccc(OCc3nnn[nH]3)c(Br)c2)cc1"
reported_measurement = 53


1: O=C(O)COc1ccc(-c2ccc(CNC(=O)c3cnn(-c4ccccc4)c3C(F)(F)F)cc2)cc1
2: CCCCc1oc2ccccc2c1C(=O)NCc1ccc(-c2ccc(OCC(=O)O)c(Br)c2)cc1
3: O=C(Nc1ccc(-c2cccc(OC(Cc3ccccc3)C(=O)O)c2)cc1)c1ccc(Oc2ccccc2)cc1 (stereo not shown)
4: O=C(Nc1ccc(-c2cccc(OC(Cc3ccccc3)C(=O)O)c2)cc1)c1cc(-c2ccc(C(F)(F)F)cc2)oc1C(F)(F)F (stereo not shown)
Please list these in order of increasing inhibition at 25 µM. Thank you! Note for the reader: the ranking is given by listing the labels in the order requested. 1, 3, 4, 2
